assay: Cytometric Cell-Based qHTS for Inhibitors of the mTORC1 Signaling Pathway in MEF (Tsc2-/-, p53-/-) Cells (AID 2660); details: mTORC1 pathway cytometry; series mostly up to 38.3 µM;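 also: Tsc2 and p53 null MEFs carrying empty vector with compound for 24 h; percent of cells above a phospho-rpS6 to PI ratio cutoff in each well; plate controls were DMSO for no effect and rapamycin for full effect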
Inconclusive results are not listed. Activity calls are given as the source filed them. Calls follow the shape of the dose curve; as a rule, active = well fitted curve in the direction sought with a large enough effect; inconclusive = small, poorly fitted or top-dose-only effect, or another doubt; inactive = no such curve, though single readings can be large or run the other way.
assay.endpoint: outcome

Please look up its outcome: OCc1ccc(-c2nn(Cc3ccccc3)c3ccccc23)o1
inactive

Please look up its outcome: N[C@@H](Cc1ccc(O)c(O)c1)C(=O)O
inactive

Please look up its outcome: NC(=O)c1cccc(N)c1
inactive

====

assay: Quantitative High-Throughput drug screen in 47 multiple myeloma cell lines against the NCATS MIPE library collection: ARP1_JJKsccF8 cell viability assay (AID 1918928; also: nearly all actives have a fitted effect of over 40% in size;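 as to viability: 100% = DMSO only wells and 0% = medium only wells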); conditions: ARP1 myeloma cells viability, CellTiter-Glo ATP, 48 h; series mostly up to 45.8 µM
Inconclusive results are not listed. The source made the active and inactive calls. Calls follow the shape of the dose curve; as a rule, active = well fitted cell-killing curve with a large enough effect; inconclusive = small, poorly fitted or top-dose-only effect, or effect the other way; inactive = no such curve, though single readings can be large or run the other way.
In this exercise, the only acceptable responses are 1 = active, 0 = inactive

Would you mind telling me which call this test gave Nc1ccc(S(=O)(=O)Nc2ccccn2)cc1 ?
0

Would you mind telling me which call this test gave COc1ccccc1OCC(O)COC(N)=O (configuration not stated) ?
0

Would you mind telling me which call this test gave COc1cc(NCc2ccc3nc(N)nc(N)c3c2C)cc(OC)c1OC ?
1

Would you mind telling me which call this test gave CCc1cc(C(N)=S)ccn1 ?
0

Would you mind telling me which call this test gave COc1ccc2c(c1)c(CC(=O)OCC(=O)O)c(C)n2C(=O)c1ccc(Cl)cc1 ?
0

***
Would you mind telling me which call this test gave O=C(O)c1cn(C2CC2)c2cc(N3CCNCC3)c(F)cc2c1=O ?
0

Would you mind telling me which call this test gave COc1ccc(-c2ccc3cc(C(=O)O)ccc3c2)cc1C12CC3CC(CC(C3)C1)C2 ?
0

Measured values drawn from PubChem BioAssay (NCATS) for this set.
